Tested on: OVCAR-3
methodNotes: NCI tumour cell line growth inhibition, 48 h
The source made the active and inactive calls. No stated cut-off is given here; in the data, active = GI50 up to about 1.1 µM and inactive = higher.
Measured GI50 of individual entries
quantity: GI50

                                   compound  quantity               result
0  NS(=O)(=O)c1nnc(NS(=O)(=O)c2ccc(F)cc2)s1      GI50  > 100 µM (inactive)
1  CCCCCCCCCCCC(=O)OC(COC(N)=O)COc1ccc(Cl)cc1 (stereo not given)      GI50   16.3 µM (inactive)
2  O=C1N(c2ccccc2)C(=S)/C(=C/c2ccc(Cl)cc2)N1c1ccc(Cl)cc1      GI50   35.2 µM (inactive)
3      COc1ccc(NC(=S)c2ccc(CN3CCCCC3)s2)cc1      GI50   33.6 µM (inactive)
4  O[C@@]12Cc3c([nH]c4ccccc34)[C@@H]3Oc4c(-c5ccccc5)ccc5c4[C@@]31CCN(CC1CC1)[C@@H]2C5      GI50   1.49 µM (inactive)
5  O=C1C(=Cc2cccc(O)c2)N=C(c2ccccc2)N1n1c(-c2ccccc2)nc2ccccc2c1=O      GI50   22.4 µM (inactive)
6                       Oc1ccncc1-c1cnccc1O      GI50  > 100 µM (inactive)
7  CN(C)Cc1cc(C(=O)/C=C/c2ccc(O)cc2)cc(CN(C)C)c1O      GI50   18.9 µM (inactive)
8        N#CC(=C1C=CC(=NO)C=C1)c1ccc(Cl)cc1      GI50   3.52 µM (inactive)
9  CC1(C)C=N[N+]2(C)C3C=CC(CC3)C12 (stereo not given)      GI50  > 100 µM (inactive)

###

System: HOP-92
methodNotes: NCI tumour cell line growth inhibition, 48 h
Calls of active or inactive are those of the source. Rule as the data show it: active = GI50 up to about 1.1 µM and inactive = higher.
quantity: GI50

                                   compound               result
0  COc1cccc2c1C(=O)c1c(O)c3c(c(O)c1C2=O)C[C@@](O)(C(C)=O)C[C@@H]3OC1CC(N(C)C)C(O)C(C)O1 (some centres undefined)    0.084 µM (active)
1  OCC(O)COCn1cc(Cn2ncc3c(O)ncnc32)nn1 (centres undefined)  > 100 µM (inactive)
2  CCC(=O)NC(Nc1cccc(F)c1C)(C(F)(F)F)C(F)(F)F  > 100 µM (inactive)
3  C#C[C@]1(O)CC[C@H]2[C@@H]3CCC4=C/C(=N/OC(=O)c5cccc6c(=O)c7ccccc7[nH]c56)CCC4[C@H]3CC[C@@]21CC (some centres undefined)   42.6 µM (inactive)

###

System: SF-539
methodNotes: NCI tumour cell line growth inhibition, 48 h
Activity calls are given as the source filed them. Cut-off read from the data, not from the text of the source: active = GI50 up to about 1.1 µM and inactive = higher.
GI50 values, listed per item
quantity: GI50

compound	result
CC1(C)C=N[N+]2(C)C3C=CC(CC3)C12 (configuration not stated)	> 100 µM (inactive)
c1ccc2c(c1)SP1Sc3ccccc3P21 (configuration not stated)	> 100 µM (inactive)
NC(=O)c1nnc2c(F)cccc2c1N	> 100 µM (inactive)
CON(C)C(=O)C(C)NC(=O)OC(C)(C)C (configuration not stated)	> 100 µM (inactive)
CCCCCCCCCCCC(=O)OC(COC(N)=O)COc1ccc(Cl)cc1 (configuration not stated)	18.8 µM (inactive)
CC1=C2C(=O)NN=C2CCN1c1ccc(Br)cc1	> 100 µM (inactive)
COc1ccc([Se]c2ccc(OC)cc2OC)c(OC)c1	22.6 µM (inactive)
Cc1ccc(S(=O)(=O)N(/N=C(\N)Oc2ccc(Cl)cc2)C(=N)Oc2ccc(Cl)cc2)cc1	> 100 µM (inactive)
Cc1ccc(S(=O)(=O)n2c3c(c4ccccc42)CCN2C(=O)C(S(=O)(=O)c4ccccc4)=CCC32)cc1 (configuration not stated)	0.191 µM (active)
Cc1cc(C)c(C)c(-n2[nH]c(=O)n(C)c2=O)c1C	> 100 µM (inactive)
CSc1nc(NC2OC(COC(C)=O)C(OC(C)=O)C(OC(C)=O)C2OC(C)=O)c(/N=C/C=N/c2c(NC3OC(COC(C)=O)C(OC(C)=O)C(OC(C)=O)C3OC(C)=O)nc(SC)[nH]c2=O)c(=O)[nH]1 (configuration not stated)	> 100 µM (inactive)
CC(C)C[C@@H](NC(=O)[C@@H](Cc1cccc2ccccc12)NC(=O)N1CCOCC1)B(O)O	43.4 µM (inactive)
O=C(O)Cc1cc(Cl)ccc1O	> 100 µM (inactive)
O=C(COc1ccc2c(=O)cc(-c3ccccc3)oc2c1)N1CCN(c2ccccc2)CC1	71.1 µM (inactive)
CC1C(C#N)(C#N)C(C#N)=C(N)C1(C)[N+](=O)[O-] (configuration not stated)	31.5 µM (inactive)
Fc1cccc(F)c1C1SCc2nc3cc4ccccc4cc3n21 (configuration not stated)	17.2 µM (inactive)
O=c1[nH]nc(Cc2ccccc2)n1C1CC1	> 100 µM (inactive)
CC1CCC(C(C)C2C(O)CC3C4CC=C5CC(O)CCC5(C)C4CCC32C)NC1 (configuration not stated)	34.2 µM (inactive)
COC(=O)C1=CSC2(S1)C(C(=O)OC)=CSc1c2ssc1=O (configuration not stated)	1.57 µM (inactive)
Cc1nn2c(C(=O)N/N=C/c3ccc([N+](=O)[O-])cc3)c(C)nc2s1	31.4 µM (inactive)
O=c1c2ccccc2sc2nc(CCl)nn12	32.4 µM (inactive)
c1ccc(/N=C2\SC(c3ccccc3)CN2C23CC4CC(CC(C4)C2)C3)cc1 (configuration not stated)	> 100 µM (inactive)
CN(C)/C(=N\C#N)NCc1ccccc1	> 100 µM (inactive)
CNc1ccc([S+]([O-])Nc2ccccc2)cc1 (configuration not stated)	> 100 µM (inactive)
COc1cc(Br)cc2cc(-c3cn4ccsc4n3)c(=O)oc12	36.2 µM (inactive)
Nc1ncnc2c1ncn2C1C=CC(CP(=O)(O)O)C1 (configuration not stated)	> 100 µM (inactive)
OC1(c2ccc(Cl)cc2)c2ccccc2C2=Nc3ccccc3CN21 (configuration not stated)	39.6 µM (inactive)
COc1c(O)cc2c(c1O)C1O[C@H](CO)C(O)[C@H](O)[C@H]1OC2=O (some centres not stated)	> 100 µM (inactive)
CN(C)CCCNC(=O)N/N=C/c1ccccn1	> 10 µM (inactive)
O=C1C(=Cc2cccc(O)c2)N=C(c2ccccc2)N1n1c(-c2ccccc2)nc2ccccc2c1=O	17.9 µM (inactive)
CC(NNC(=O)c1cc[n+]([BH2-]C#N)cc1)c1ccccc1F (configuration not stated)	> 100 µM (inactive)
C=C(COC(C)=O)CC(OC(C)=O)c1ccccc1 (configuration not stated)	> 100 µM (inactive)
COc1ccc(/C=C/C(=O)CCN2CCN(CCC(=O)/C=C/c3ccc(OC)cc3)CC2)cc1	6.17 µM (inactive)
NS(=O)(=O)c1nnc(NS(=O)(=O)c2ccc(F)cc2)s1	> 100 µM (inactive)
[O-][S@@+]1c2ccc3ccccc3c2N[C@@H]2[C@H]1[C@H]1C=C[C@@H]2C1	> 100 µM (inactive)
O=C1c2ccccc2-c2[nH]c3cn[nH]c(=O)c3c21	> 100 µM (inactive)
O=C1NC(=S)NC(=O)C1=Cc1ccc([N+](=O)[O-])o1	22.9 µM (inactive)
C=CC1=C(C)c2cc3[nH]c(cc4nc(cc5[nH]c(cc1n2)c(C)c5CCC(=O)N(CC)CC)C(CCC(=O)N(CC)CC)=C4C)c(C)c3C=C	> 100 µM (inactive)
C[C@@H](c1ccccc1)C(CC#N)[C@H]1CCC[C@]1(O)C#Cc1ccc2c(c1)OCO2 (some centres not stated)	10.6 µM (inactive)
C[n+]1c(-c2ccc(/C=N\NC(=O)c3ccc(C(=O)N/N=C/c4ccc(-c5cn6ccsc6[n+]5C)cc4)cc3)cc2)cn2ccsc21	23.6 µM (inactive)
O=C1NC(N2CCOCC2)=N/C1=C\c1ccco1	> 100 µM (inactive)
CO/C=C(/C(=O)OC)c1ccccc1[C@H]1C[C@@H]1c1ccccc1	21.2 µM (inactive)

// data source = ChEMBL document CHEMBL1201862
